Test system: Escherichia coli TOP10;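 also: peptides expressed intracellularly from a pBAD plasmid library in pooled LB shake-flask culture, induced with 0.3% L-arabinose, DNA abundance read by NGS, three biological replicates, DESeq2 with apeglm shrinkage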
Assay: shrunken log2 fold change of peptide-encoding DNA abundance (4.5 h post-induction vs induction); higher = less antimicrobial activity (less host growth inhibition)
Settings: time post-induction: 4.5 h; library: site-saturation at positions 5, 18, 19, 20

[
  {
    "BIOPOLYMER SEQUENCE": "RRIRLRPPRLPRPRPRPTGPPRP",
    "shrunken log2 fold change": 0.298
  },
  {
    "BIOPOLYMER SEQUENCE": "RRIRGRPPRLPRPRPRPQAEPRP",
    "shrunken log2 fold change": 1.08
  },
  {
    "BIOPOLYMER SEQUENCE": "RRIRRRPPRLPRPRPRPRPKPRP",
    "shrunken log2 fold change": 1.05
  },
  {
    "BIOPOLYMER SEQUENCE": "RRIRSRPPRLPRPRPRPVICPRP",
    "shrunken log2 fold change": -0.0365
  },
  {
    "BIOPOLYMER SEQUENCE": "RRIRPRPPRLPRPRPRPPCEPRP",
    "shrunken log2 fold change": 0.522
  },
  {
    "BIOPOLYMER SEQUENCE": "RRIRSRPPRLPRPRPRPGNRPRP",
    "shrunken log2 fold change": -0.00644
  },
  {
    "BIOPOLYMER SEQUENCE": "RRIRKRPPRLPRPRPRPSSWPRP",
    "shrunken log2 fold change": 0.147
  },
  {
    "BIOPOLYMER SEQUENCE": "RRIRCRPPRLPRPRPRPVCNPRP",
    "shrunken log2 fold change": 0.0532
  },
  {
    "BIOPOLYMER SEQUENCE": "RRIRERPPRLPRPRPRPCKYPRP",
    "shrunken log2 fold change": 3.12
  },
  {
    "BIOPOLYMER SEQUENCE": "RRIRGRPPRLPRPRPRPVVNPRP",
    "shrunken log2 fold change": 0.0184
  },
  {
    "BIOPOLYMER SEQUENCE": "RRIRARPPRLPRPRPRPNLHPRP",
    "shrunken log2 fold change": 0.0181
  },
  {
    "BIOPOLYMER SEQUENCE": "RRIRYRPPRLPRPRPRPSDGPRP",
    "shrunken log2 fold change": -0.327
  },
  {
    "BIOPOLYMER SEQUENCE": "RRIRNRPPRLPRPRPRPFMRPRP",
    "shrunken log2 fold change": 0.269
  },
  {
    "BIOPOLYMER SEQUENCE": "RRIRYRPPRLPRPRPRPITEPRP",
    "shrunken log2 fold change": -0.101
  },
  {
    "BIOPOLYMER SEQUENCE": "RRIRPRPPRLPRPRPRPRCGPRP",
    "shrunken log2 fold change": 0.282
  },
  {
    "BIOPOLYMER SEQUENCE": "RRIRDRPPRLPRPRPRPPHTPRP",
    "shrunken log2 fold change": 0.198
  },
  {
    "BIOPOLYMER SEQUENCE": "RRIRSRPPRLPRPRPRPWDGPRP",
    "shrunken log2 fold change": -0.0512
  },
  {
    "BIOPOLYMER SEQUENCE": "RRIRDRPPRLPRPRPRPMCRPRP",
    "shrunken log2 fold change": -0.0461
  },
  {
    "BIOPOLYMER SEQUENCE": "RRIRNRPPRLPRPRPRPDDAPRP",
    "shrunken log2 fold change": 0.147
  },
  {
    "BIOPOLYMER SEQUENCE": "RRIRTRPPRLPRPRPRPHMSPRP",
    "shrunken log2 fold change": 0.0303
  },
  {
    "BIOPOLYMER SEQUENCE": "RRIRRRPPRLPRPRPRPEAVPRP",
    "shrunken log2 fold change": 1.53
  },
  {
    "BIOPOLYMER SEQUENCE": "RRIRGRPPRLPRPRPRPYRAPRP",
    "shrunken log2 fold change": -0.233
  },
  {
    "BIOPOLYMER SEQUENCE": "RRIRLRPPRLPRPRPRPELWPRP",
    "shrunken log2 fold change": 0.626
  },
  {
    "BIOPOLYMER SEQUENCE": "RRIRERPPRLPRPRPRPAKFPRP",
    "shrunken log2 fold change": 0.112
  },
  {
    "BIOPOLYMER SEQUENCE": "RRIRNRPPRLPRPRPRPETMPRP",
    "shrunken log2 fold change": -0.0713
  },
  {
    "BIOPOLYMER SEQUENCE": "RRIRERPPRLPRPRPRPRSNPRP",
    "shrunken log2 fold change": -0.0433
  },
  {
    "BIOPOLYMER SEQUENCE": "RRIRVRPPRLPRPRPRPYASPRP",
    "shrunken log2 fold change": 0.00213
  },
  {
    "BIOPOLYMER SEQUENCE": "RRIRTRPPRLPRPRPRPPEFPRP",
    "shrunken log2 fold change": -0.231
  },
  {
    "BIOPOLYMER SEQUENCE": "RRIRPRPPRLPRPRPRPMTFPRP",
    "shrunken log2 fold change": -0.0264
  },
  {
    "BIOPOLYMER SEQUENCE": "RRIRPRPPRLPRPRPRPQAVPRP",
    "shrunken log2 fold change": 0.0933
  },
  {
    "BIOPOLYMER SEQUENCE": "RRIRGRPPRLPRPRPRPGAPPRP",
    "shrunken log2 fold change": 1.29
  },
  {
    "BIOPOLYMER SEQUENCE": "RRIRHRPPRLPRPRPRPWVPPRP",
    "shrunken log2 fold change": -0.408
  },
  {
    "BIOPOLYMER SEQUENCE": "RRIRPRPPRLPRPRPRPPIMPRP",
    "shrunken log2 fold change": -0.0982
  },
  {
    "BIOPOLYMER SEQUENCE": "RRIRGRPPRLPRPRPRPRHKPRP",
    "shrunken log2 fold change": 0.149
  },
  {
    "BIOPOLYMER SEQUENCE": "RRIRFRPPRLPRPRPRPGPRPRP",
    "shrunken log2 fold change": 0.618
  },
  {
    "BIOPOLYMER SEQUENCE": "RRIRIRPPRLPRPRPRPDRMPRP",
    "shrunken log2 fold change": -0.0164
  },
  {
    "BIOPOLYMER SEQUENCE": "RRIRDRPPRLPRPRPRPVYSPRP",
    "shrunken log2 fold change": 0.0356
  },
  {
    "BIOPOLYMER SEQUENCE": "RRIRQRPPRLPRPRPRPLKGPRP",
    "shrunken log2 fold change": -0.272
  },
  {
    "BIOPOLYMER SEQUENCE": "RRIRNRPPRLPRPRPRPRVEPRP",
    "shrunken log2 fold change": 0.345
  },
  {
    "BIOPOLYMER SEQUENCE": "RRIRQRPPRLPRPRPRPFMKPRP",
    "shrunken log2 fold change": -0.0158
  },
  {
    "BIOPOLYMER SEQUENCE": "RRIRLRPPRLPRPRPRPNDMPRP",
    "shrunken log2 fold change": -0.258
  },
  {
    "BIOPOLYMER SEQUENCE": "RRIRNRPPRLPRPRPRPPMFPRP",
    "shrunken log2 fold change": -0.0155
  },
  {
    "BIOPOLYMER SEQUENCE": "RRIRRRPPRLPRPRPRPKCHPRP",
    "shrunken log2 fold change": 0.0704
  },
  {
    "BIOPOLYMER SEQUENCE": "RRIRLRPPRLPRPRPRPGYSPRP",
    "shrunken log2 fold change": -0.314
  },
  {
    "BIOPOLYMER SEQUENCE": "RRIRDRPPRLPRPRPRPQTAPRP",
    "shrunken log2 fold change": 4.26
  },
  {
    "BIOPOLYMER SEQUENCE": "RRIRGRPPRLPRPRPRPIQHPRP",
    "shrunken log2 fold change": -0.0341
  },
  {
    "BIOPOLYMER SEQUENCE": "RRIRRRPPRLPRPRPRPCKPPRP",
    "shrunken log2 fold change": 0.151
  },
  {
    "BIOPOLYMER SEQUENCE": "RRIRTRPPRLPRPRPRPNEMPRP",
    "shrunken log2 fold change": -0.235
  },
  {
    "BIOPOLYMER SEQUENCE": "RRIRNRPPRLPRPRPRPYHQPRP",
    "shrunken log2 fold change": -0.308
  },
  {
    "BIOPOLYMER SEQUENCE": "RRIRERPPRLPRPRPRPAWPPRP",
    "shrunken log2 fold change": 0.359
  },
  {
    "BIOPOLYMER SEQUENCE": "RRIRYRPPRLPRPRPRPACVPRP",
    "shrunken log2 fold change": -0.351
  },
  {
    "BIOPOLYMER SEQUENCE": "RRIRMRPPRLPRPRPRPMRLPRP",
    "shrunken log2 fold change": 0.416
  },
  {
    "BIOPOLYMER SEQUENCE": "RRIRLRPPRLPRPRPRPLTPPRP",
    "shrunken log2 fold change": 0.62
  }
]
